# assay_target: Bcl-2 protein (Homo sapiens, UniProt P10415, DELINS35-91DVEENRTEAPEGTESE, form not given)
# Construct: fused on or other part: Bcl-xL (Q07817) residues 29-44 stand in place of Bcl-2's own unstructured loop 35-91; The C-terminal membrane anchor (208-239) is absent
# Sequence (P10415 with tags, fused parts or gaps with the stated changes): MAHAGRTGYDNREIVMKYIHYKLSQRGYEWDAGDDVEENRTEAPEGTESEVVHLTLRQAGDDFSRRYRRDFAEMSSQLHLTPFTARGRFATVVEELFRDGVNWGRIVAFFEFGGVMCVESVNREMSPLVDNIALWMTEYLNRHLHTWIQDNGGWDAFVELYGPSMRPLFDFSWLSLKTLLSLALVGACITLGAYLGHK
# assay_overview: Bcl-2 fluorescence polarization assay (FPA) binding
# experimental_setup: 10 nM Bcl-2 protein, 1 nM fluorescein-labeled BAX peptide, room temperature, read-out: Bcl-2 FPA 11pt Ki
experimental_readout: pKi
# log scale: pKi equals minus log10 of the concentration in mol/L

Retrieve pKi measured for O=C(NS(=O)(=O)c1ccc(NCC2CCOCC2)c([N+](=O)[O-])c1)c1ccc(N2CCC(=Cc3ccccc3-c3cn(C45CC6CC(CC(C6)C4)C5)nc3C(=O)N(c3ccccc3)c3ccccc3)CC2)cc1 [Example 69] and print it. 6.10

// fetch pKi given entry O=C(NS(=O)(=O)c1ccc(NC2CCOCC2)c([N+](=O)[O-])c1)c1ccc(NC2C3CC4CC(C3)CC2C4)cc1 (centres unmarked) [Example 84] 5.62

Input C[C@@H]1[C@@H](N(C(=O)CCc2ccccc2)C2CCN(c3ccc(C(=O)NS(=O)(=O)c4ccc(NCC5CCCCC5)c([N+](=O)[O-])c4)cc3)CC2)C[C@H]2C[C@@H]1C2(C)C [Example 46] , output reported pKi. 7.48

Annotate the molecule CC1(C)OB(c2ccccc2CN2CCN(c3ccc(C(=O)NS(=O)(=O)c4ccc(NCC5CCOCC5)c([N+](=O)[O-])c4)cc3)CC2)OC1(C)C [Example 67] with its measured pKi. 5.39
